Data origin, for the record: patent US6737383B1

# Lookup of reported Corn plant response rating keyed by entry
test system: corn; assay: Test B pre/postemergence corn; type: in vivo, Zea mays; conditions: Preemergence, Rate 125 g/ha; scale of 0 to 10 where 0 is no effect and 10 is complete control

| COMPOUND | ASSAYED_TARGET | Corn plant response rating |
| --- | --- | --- |
| CC(C)N(C(=O)n1oc(=O)n(CCCC(F)(F)F)c1=O)c1ccccc1 [Compound 585] | corn | 2 |
| CC(C)N(C(=O)n1oc(=O)n(C(CF)CF)c1=O)c1ccc(F)cc1F [Compound 595] | corn | 0 |
| CC[C@H](C)n1c(=O)on(C(=O)N(c2ccc(Cl)cc2)C(C)C)c1=O [Compound 664] | corn | 0 |
| C=C(Cl)Cn1c(=O)on(C(=O)N(c2ccc(F)cc2F)C(C)C)c1=O [Compound 634] | corn | 0 |

---

system: sugar beet; experiment: Test B pre/postemergence sugar beet; assay type: in vivo, Beta vulgaris; conditions: Rate 125 g/ha, Postemergence; scale 0 to 10

| COMPOUND | ASSAYED_TARGET | Sugarbeets plant response rating |
| --- | --- | --- |
| CCc1cccc(C)c1-n1c(=O)on(C(=O)N(c2ccc(F)cc2)C(C)C)c1=O [Compound 201] | sugar beet | 0 |
| COc1nc(OC)nc(N(C(=O)n2oc(=O)n(-c3ccccc3C)c2=O)C(C)C)n1 [Compound 181] | sugar beet | 0 |
| CC(C)N(C(=O)n1oc(=O)n([C@H](C)c2ccccc2)c1=O)c1ccc(F)cc1 [Compound 179] | sugar beet | 0 |
| CC(C)N(C(=O)n1oc(=O)n(N(C)C)c1=O)c1ccccc1 [Compound 225] | sugar beet | 0 |
| Cc1ccccc1-n1c(=O)on(C(=O)N(c2ccc(Cl)cc2Cl)C(C)C)c1=O [Compound 185] | sugar beet | 0 |
| C=C(C)CCn1c(=O)on(C(=O)N(c2ccc(F)cc2)C(C)C)c1=O [Compound 199] | sugar beet | 0 |

---

Overview of reported Plant response rating, Velvetleaf across a group of compounds:
tested on: velvetleaf; assay: Test B pre/postemergence velvetleaf; format: in vivo, Abutilon theophrasti; conditions: Rate 500 g/ha, Postemergence; scale 0 to 10, 0 no effect, 10 complete control

| COMPOUND | ASSAYED_TARGET | Plant response rating, Velvetleaf |
| --- | --- | --- |
| CC(C)N(C(=O)n1oc(=O)n(-c2ccc3ccccc3c2)c1=O)c1ccc(Cl)cc1 [Compound 333] | velvetleaf | 0 |
| Cc1c(-n2c(=O)on(C(=O)N(c3ccc(Cl)cc3)C(C)C)c2=O)ccc2ccccc12 [Compound 336] | velvetleaf | 0 |
| CC(C)N(C(=O)n1oc(=O)n(-c2ccc3ccccc3c2)c1=O)c1ccc(F)cc1 [Compound 329] | velvetleaf | 0 |
| CC(C)N(C(=O)n1oc(=O)n(CCl)c1=O)c1ccc(F)cc1 [Compound 376] | velvetleaf | 0 |
| Cc1nsc(Cl)c1Cn1c(=O)on(C(=O)N(c2ccccc2)C(C)C)c1=O [Compound 374] | velvetleaf | 1 |

---

test system: corn; assay: Test B pre/postemergence corn; format: in vivo, Zea mays; details: Postemergence, Rate 500 g/ha; scale of 0 to 10 where 0 is no effect and 10 is complete control

| COMPOUND | Plant response rating, Corn |
| --- | --- |
| C=C(Cn1c(=O)on(C(=O)N(c2ccccc2)C(C)C)c1=O)c1cccc(Cl)n1 [Compound 605] | 0 |
| CCC(C)n1c(=O)on(C(=O)N(c2ccccc2)C(C)C)c1=O (stereo not drawn) [Compound 611] | 6 |
| CCC(C)n1c(=O)on(C(=O)N(c2ccccc2)C(C)C)c1=O (stereo not drawn) [Compound 610] | 5 |
| CC(C)N(C(=O)n1oc(=O)n(CC2CCC2)c1=O)c1ccccc1 [Compound 580] | 0 |
| CC(C)N(C(=O)n1oc(=O)n(CC[N+](=O)[O-])c1=O)c1ccc(F)cc1F [Compound 591] | 0 |
| CC(C)N(C(=O)n1oc(=O)n(CCCC(F)(F)F)c1=O)c1ccccc1 [Compound 585] | 5 |
